- STUDY_SYSTEM: HLA-C*03:03
- ASSAY_PROTOCOL: IEDB peptide-MHC binding, purified MHC/direct/fluorescence; filed as Kd, often an IC50 or EC50 that approximates it; bounds were set here for any values at or beyond the usual limits of such assays
- MEASUREMENT_PARAMETERS: source organism: Escherichia coli B171
QUANTITY_MEASURED: Kd

INSERT INTO measurements (sequence_record, quantity_measured, observed) VALUES
  ('YIVGYYSAL', 'Kd', '≤ 1 nM');

* * *

- STUDY_SYSTEM: HLA-A*11:01
- ASSAY_PROTOCOL: IEDB peptide-MHC binding, purified MHC/competitive/fluorescence; bounds were set here for any values at or beyond the usual limits of such assays
- MEASUREMENT_PARAMETERS: source organism: Tarsius lariang
pIC50: −log10 of the molar value.
QUANTITY_MEASURED: pIC50

INSERT INTO results (sequence_record, observed) VALUES
  ('TEAEKWPFF', '≤ 4.70');

Data origin: the Immune Epitope Database (IEDB)
